These measurements were taken from ChEMBL document CHEMBL1132924.

- experimental_system: Amine oxidase [flavin-containing] A (Rattus norvegicus, UniProt P21396)
- Sequence (P21396 whole entry): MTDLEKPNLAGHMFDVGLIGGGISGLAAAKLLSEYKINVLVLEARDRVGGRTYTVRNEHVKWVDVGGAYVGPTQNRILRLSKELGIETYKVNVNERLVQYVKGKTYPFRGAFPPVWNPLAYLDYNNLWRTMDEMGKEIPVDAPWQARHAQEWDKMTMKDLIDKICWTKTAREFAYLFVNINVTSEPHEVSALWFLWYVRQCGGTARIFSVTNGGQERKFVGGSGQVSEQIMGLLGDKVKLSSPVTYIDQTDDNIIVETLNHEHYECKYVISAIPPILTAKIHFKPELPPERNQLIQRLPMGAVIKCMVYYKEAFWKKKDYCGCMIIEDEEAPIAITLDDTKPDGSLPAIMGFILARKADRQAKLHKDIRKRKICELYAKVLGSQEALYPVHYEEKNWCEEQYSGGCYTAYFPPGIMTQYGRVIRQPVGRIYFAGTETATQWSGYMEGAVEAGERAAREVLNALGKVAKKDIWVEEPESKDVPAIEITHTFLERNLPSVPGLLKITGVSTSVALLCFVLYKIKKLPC
- experiment_description: Inhibitory activity against Monoamine oxidase A
pKi: −log10 of the molar value.
Rule: pKi of 5 or more gives condition met; anything lower gives condition not met.

- CC#CCN(C)Cc1cc2cc(O)ccc2n1C: condition met

Lookup: Item C#CCNCc1cc2cc(O)ccc2n1C with pKi of 5 or above?
Found: condition met

Lookup: Another compound to look at: CC(C)NCc1cn(Cc2ccccc2)c2ccccc12
Found: condition not met

Lookup: Another compound to look at: C#CCN(C)Cc1cc2cc(OC)ccc2n1C
Found: condition met

Lookup: Another compound to look at: C#CCNCc1cc2cc(OC)ccc2n1C
Found: condition met

Lookup: Another compound to look at: C#CCN(C)Cc1cn(Cc2ccccc2)c2ccccc12
Found: condition not met

* * *

- experimental_system: Amine oxidase [flavin-containing] A (Rattus norvegicus)
- experiment_description: Inhibitory activity against Monoamine oxidase A
Please go through the items and note down their Ki.
Answers are plain numbers, in µM.

// known answers, use as guide
• Cn1c(CNCc2ccccc2)cc2ccccc21 = 33.9
• c1ccc(CNCc2cc3ccccc3[nH]2)cc1 = 87.1
• C#CCN(C)Cc1cc2cc(O)ccc2n1C = 0.00398
• C#CCNCc1cc2ccccc2n1C = 0.24
• C#CCN(C)Cc1cc2ccccc2n1C = 0.000302
• CC#CCNCc1cc2cc(OCc3ccccc3)ccc2[nH]1 = 15.1
• CC#CCN(C)Cc1cc2cc(OC)ccc2n1C = 0.00141
• CNCc1cn(Cc2ccccc2)c2ccccc12 = 166

For each listed entry, give its Ki.
1. CCNCc1cn(Cc2ccccc2)c2ccccc12
2. c1ccc(CNCc2cn(Cc3ccccc3)c3ccccc23)cc1
3. CC#CCN(C)Cc1cc2ccccc2n1C

Found:
1. 263
2. 245
3. 0.00427

* * *

Please go through the items and note down their Ki.
- experimental_system: Amine oxidase [flavin-containing] A (Rattus norvegicus, UniProt P21396)
- experiment_description: Inhibitory activity against Monoamine oxidase A
One number for each entry, in µM.

// known answers, use as guide
• CNCc1cn(Cc2ccccc2)c2ccccc12 = 167
• C#CCNCc1cc2cc(OCc3ccccc3)ccc2[nH]1 = 0.79
• CC#CCN(C)Cc1cc2cc(O)ccc2n1C = 0.0057
• C#CCNCc1cc2cc(O)ccc2n1C = 4

For each listed entry, give its Ki.
1. C#CCNCc1cc2ccccc2n1C
2. C#CCNCc1cc2cc(OC)ccc2n1C
3. C#CCN(Cc1ccccc1)Cc1cc2ccccc2n1C
4. CC(C)NCc1cn(Cc2ccccc2)c2ccccc12
5. C#CCN(C)Cc1cc2ccccc2n1C
6. c1ccc(CNCc2cc3ccccc3[nH]2)cc1
7. CCNCc1cn(Cc2ccccc2)c2ccccc12
8. CC#CCN(C)Cc1cc2cc(OC)ccc2n1C

Found:
1. 0.24
2. 0.0008
3. 10
4. 133
5. 0.0003
6. 87
7. 262
8. 0.0014

* * *

- experimental_system: Amine oxidase [flavin-containing] A (Rattus norvegicus)
- experiment_description: Inhibitory activity against Monoamine oxidase A
Please go through the items and note down their log10 Ki.
Remember, log10 of Ki, in µM.

// known answers, use as guide
• C#CCN(C)Cc1cn(Cc2ccccc2)c2ccccc12 = 2.20
• C#CCN(C)Cc1cc2cc(O)ccc2n1C = -2.40
• CC#CCN(C)Cc1cc2ccccc2n1C = -2.37
• C#CCN(C)Cc1cc2cc(OC)ccc2n1C = -2.82
• c1ccc(CNCc2cn(Cc3ccccc3)c3ccccc23)cc1 = 2.39

Lookup: Quick one: log10 Ki for Cn1c(CNCc2ccccc2)cc2ccccc21 ?
Found: 1.53
